Give measured Before transformed by intestinal bacteria for each item. Keep answers brief.
Tested on: activated intestinal bacteria
METHOD SUMMARY: Intestinal bacterial transformation of AEOF
Type: in vitro ADME, human
RUN PARAMETERS: content in the extract; first of three lines per compound (lowest extract concentration; AEOF 15, 30, 60 mg/mL)
The reply should consist of the numeric value with the unit placed after it.

Task: Give the measured Before transformed by intestinal bacteria of O=c1c(O[C@@H]2O[C@H](CO)[C@@H](O)[C@H](O)[C@H]2O)c(-c2ccc(O)c(O)c2)oc2cc(O)cc(O)c12 .
Result: 0.37 µg/mL

Task: Another: O=c1cc(-c2ccc(O)c(O)c2)oc2c(C3OC(CO)C(O)C(O)C3OC3OC(CO)C(O)C(O)C3O)c(O)cc(O)c12 (stereo not drawn)
Result: 26.86 µg/mL

Task: COc1cc(C(=O)O)cc(CC=C(C)C)c1OC1OC(CO)C(O)C(O)C1O (stereo not drawn) [trollioside] ?
Result: 5.62 µg/mL

Task: Okay, and COc1ccc(C(=O)O)cc1OC ?
Result: 2.81 µg/mL

Task: Next up: O=c1c(O)c(-c2ccc(O)c(O)c2)oc2cc(O)cc(O)c12
Result: 1.56 µg/mL

Task: Now give it for COc1cc(C(=O)O)cc(CC=C(C)C)c1O too.
Result: 2.55 µg/mL

Task: Now consider O=c1cc(-c2ccc(O)c(O)c2)oc2c([C@@H]3O[C@H](CO)[C@@H](O)[C@H](O)[C@H]3O)c(O)cc(O)c12 .
Result: 10.27 µg/mL

Task: Quick one: O=C1CC[C@H]2c3cc(O)c(O)cc3CCN12
Result: 22.80 µg/mL

Task: # iterate: O=c1cc(-c2ccc(O)cc2)oc2c([C@@H]3O[C@H](CO)[C@@H](O)[C@H](O)[C@H]3O)c(O)cc(O)c12
Result: 2.98 µg/mL

// data source = paper PMC6130518
